pIC50: −log10 of the molar value.
The following molecules have recorded pIC50 on MMP-3 (Homo sapiens).
Sequence (P08254 100-477): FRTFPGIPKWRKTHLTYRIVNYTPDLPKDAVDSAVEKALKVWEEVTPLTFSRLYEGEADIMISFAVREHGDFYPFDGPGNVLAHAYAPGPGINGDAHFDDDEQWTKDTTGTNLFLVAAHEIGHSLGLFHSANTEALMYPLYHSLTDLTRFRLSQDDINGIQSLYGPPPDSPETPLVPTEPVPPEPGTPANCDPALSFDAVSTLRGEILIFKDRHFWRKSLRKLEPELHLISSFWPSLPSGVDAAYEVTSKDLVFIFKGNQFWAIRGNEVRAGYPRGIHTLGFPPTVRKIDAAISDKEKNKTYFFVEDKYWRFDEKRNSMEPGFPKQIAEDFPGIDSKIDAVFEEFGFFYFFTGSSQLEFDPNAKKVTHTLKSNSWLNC

>  <Molecule>
O=C(O)[C@H]1[C@H](Cn2nnc3ccccc3c2=O)CC[C@@H]1C(=O)c1ccc(OCC2CCCC2)cc1 (racemic)

>  <pIC50>
5.96

$$$$
>  <Molecule>
O=C(O)[C@H]1[C@H](Cn2nnc3ccc(C(F)(F)F)cc3c2=O)CC[C@@H]1C(=O)c1ccc(OCCCC2CCCCC2)cc1 (racemic)

>  <pIC50>
5.70

$$$$
>  <Molecule>
O=C(O)[C@H]1[C@H](Cn2nnc3ccc(C(F)(F)F)cc3c2=O)CC[C@@H]1C(=O)c1ccc(OCc2ccc(F)cc2)cc1 (racemic)

>  <pIC50>
7.55

$$$$
>  <Molecule>
Cc1ccc2nnn(C[C@@H]3CC[C@H](C(=O)c4ccc(OCc5cccc(OC(F)(F)F)c5)cc4)[C@H]3C(=O)O)c(=O)c2c1 (racemic)

>  <pIC50>
6.08

$$$$
>  <Molecule>
O=C(O)[C@@H]1[C@@H](Cn2nnc3ccc(C(F)(F)F)cc3c2=O)CC[C@H]1C(=O)c1ccc(OCC2CCCC2)cc1 (single isomer, unassigned)

>  <pIC50>
6.85

$$$$
>  <Molecule>
CCCCCSc1ccc(C(=O)[C@H]2CC[C@@H](Cn3nnc4ccc(C(F)(F)F)cc4c3=O)[C@@H]2C(=O)O)cc1 (racemic)

>  <pIC50>
7.02

$$$$
>  <Molecule>
Cc1ccc2nnn(C[C@@H]3CC[C@H](C(=O)c4ccc(OCc5cccc(Cl)c5)cc4)[C@H]3C(=O)O)c(=O)c2c1 (racemic)

>  <pIC50>
6.47

$$$$
>  <Molecule>
COC(=O)Nc1cccc(COc2ccc(C(=O)[C@@H]3CC[C@H](Cn4nnc5ccc(C(F)(F)F)cc5c4=O)[C@H]3C(=O)O)cc2)c1 (stereo in doubt)

>  <pIC50>
6.55

$$$$
>  <Molecule>
CCCCCOc1ccc(C(=O)[C@H]2CC[C@@H](Cn3nnc4ccc(C)cc4c3=O)[C@@H]2C(=O)O)cc1 (racemic)

>  <pIC50>
6.27

$$$$
>  <Molecule>
O=C(O)[C@H]1[C@H](Cn2nnc3ccc(C(F)(F)F)cc3c2=O)CC[C@@H]1C(=O)c1ccc(SCc2ccc(Cl)c(Cl)c2)cc1 (racemic)

>  <pIC50>
6.10

$$$$
>  <Molecule>
Cc1ccc2nnn(C[C@H]3CC[C@@H](C(=O)c4ccc(OCc5ccccc5)cc4)[C@@H]3C(=O)O)c(=O)c2c1 (single isomer, unassigned)

>  <pIC50>
6.82

$$$$
>  <Molecule>
O=C(O)[C@H]1[C@H](Cn2nnc3ccc(C(F)(F)F)cc3c2=O)CC[C@@H]1C(=O)c1ccc(OCc2cccc(C(F)(F)F)c2)cc1 (racemic)

>  <pIC50>
6.00

$$$$
>  <Molecule>
O=C(O)[C@H]1[C@H](Cn2nnc3ccccc3c2=O)CC[C@@H]1C(=O)c1ccc(OCCC2CCCCC2)cc1 (racemic)

>  <pIC50>
5.82

$$$$
>  <Molecule>
Cc1ccc2nnn(C[C@H]3CC[C@@H](C(=O)c4ccc(OCc5cccc(C(F)(F)F)c5)cc4)[C@@H]3C(=O)O)c(=O)c2c1 (single isomer, unassigned)

>  <pIC50>
6.06

$$$$
>  <Molecule>
O=C(O)[C@@H]1[C@@H](Cn2nnc3ccc(C(F)(F)F)cc3c2=O)CC[C@H]1C(=O)c1ccc(OCc2cccc(C(F)(F)F)c2)cc1 (single isomer, unassigned)

>  <pIC50>
5.52

$$$$
>  <Molecule>
COc1cccc(COc2ccc(C(=O)[C@H]3CC[C@@H](Cn4nnc5ccc(C)cc5c4=O)[C@@H]3C(=O)O)cc2)c1 (racemic)

>  <pIC50>
6.35

$$$$
>  <Molecule>
CCCCOc1ccc(C(=O)[C@@H]2CC[C@H](Cn3nnc4ccc(C(F)(F)F)cc4c3=O)[C@H]2C(=O)O)cc1 (single isomer, unassigned)

>  <pIC50>
6.85

$$$$
>  <Molecule>
COc1cccc(COc2ccc(C(=O)[C@@H]3CC[C@H](Cn4nnc5ccc(C)cc5c4=O)[C@H]3C(=O)O)cc2)c1 (single isomer, unassigned)

>  <pIC50>
6.14

$$$$
>  <Molecule>
O=C(O)[C@@H]1[C@@H](Cn2nnc3ccc(C(F)(F)F)cc3c2=O)CC[C@H]1C(=O)c1ccc(SCc2ccccc2)cc1 (single isomer, unassigned)

>  <pIC50>
6.77

$$$$
>  <Molecule>
O=C(O)[C@@H]1[C@@H](Cn2nnc3ccc(C(F)(F)F)cc3c2=O)CC[C@H]1C(=O)c1ccc(OCc2ccc(F)cc2)cc1 (single isomer, unassigned)

>  <pIC50>
7.21

$$$$
>  <Molecule>
O=C(O)[C@H]1[C@H](Cn2nnc3ccc(C(F)(F)F)cc3c2=O)CC[C@@H]1C(=O)c1ccc(OCC2CCCCC2)cc1 (racemic)

>  <pIC50>
6.74

$$$$
>  <Molecule>
CCCCCCOc1ccc(C(=O)[C@@H]2CC[C@H](Cn3nnc4ccc(C)cc4c3=O)[C@H]2C(=O)O)cc1 (single isomer, unassigned)

>  <pIC50>
6.39

$$$$
>  <Molecule>
O=C(O)[C@H]1[C@H](Cn2nnc3ccccc3c2=O)CC[C@@H]1C(=O)c1ccc(OCc2ccc(F)cc2)cc1 (racemic)

>  <pIC50>
6.77

$$$$
